The reported measurements were obtained from ChEMBL document CHEMBL4371101.

Test system: PC-3
Assay: Antiproliferative activity against human PC3 cells after 72 hrs by MTT assay
Type: functional, cell-based
Conditions: PC-3, 72 h
pIC50: −log10 of the molar value.
Values of pIC50 greater than or equal to 6 map to yes; values below map to no.

1) C[C@@H]1C[C@@H](O)[C@]2(O)O[C@@H]3C[C@@]4(C=O)[C@@H](CC[C@@H]5[C@@H]4CC[C@]4(C)[C@@H](C6=CC(=O)OC6)CC[C@]54O)C[C@H]3O[C@@H]2O1 [CALACTIN] :: no
2) C[C@]12CC[C@H]3[C@@H](CC[C@H]4C[C@H]5O[C@@H]6O[C@H](CO)C[C@H](O)[C@]6(O)O[C@@H]5C[C@@]43C=O)[C@@]1(O)CC[C@@H]2C1=CC(=O)OC1 :: no
3) C[C@]12[C@H](O)C[C@H]3[C@@H](CC[C@H]4C[C@H]5O[C@@H]6O[C@H](CO)C[C@@H](O)[C@]6(O)O[C@@H]5C[C@@]43CO)[C@@]1(O)CC[C@@H]2C1=CC(=O)OC1 [GHALAKINOSIDE] :: no
4) C[C@]12CC[C@H](O)C[C@@H]1CC[C@@H]1[C@@H]2CC[C@]2(C)[C@@H](C3=CC(=O)OC3)CC[C@]12O :: yes
5) C[C@@H]1C[C@H](O)[C@]2(O)O[C@@H]3C[C@@]4(C=O)[C@@H](CC[C@@H]5[C@@H]4C[C@@H](O)[C@]4(C)[C@@H](C6=CC(=O)OC6)[C@H](O)C[C@]54O)C[C@H]3O[C@@H]2O1 :: yes
6) C[C@@H]1C[C@@H](O)[C@]2(O)O[C@@H]3C[C@@]4(C=O)[C@@H](CC[C@@H]5[C@@H]4C[C@@H](O)[C@]4(C)[C@@H](C6=CC(=O)OC6)CC[C@]54O)C[C@H]3O[C@@H]2O1 :: yes
7) COc1cc(/C=C/C(=O)OC[C@H]2O[C@@H](O[C@H]3CC[C@@]4(C)[C@@H](CC[C@@H]5[C@@H]4CC[C@]4(C)[C@@H](C6=CC(=O)OC6)CC[C@]54O)C3)[C@H](O)[C@@H](O)[C@@H]2O)ccc1O :: yes
